Reported one-hybrid fitness for binding parS DNA by item:
B1: Caulobacter ParB omega fusion; a variant is named by its letters at X, in order, B8GW30 (parent)
chain: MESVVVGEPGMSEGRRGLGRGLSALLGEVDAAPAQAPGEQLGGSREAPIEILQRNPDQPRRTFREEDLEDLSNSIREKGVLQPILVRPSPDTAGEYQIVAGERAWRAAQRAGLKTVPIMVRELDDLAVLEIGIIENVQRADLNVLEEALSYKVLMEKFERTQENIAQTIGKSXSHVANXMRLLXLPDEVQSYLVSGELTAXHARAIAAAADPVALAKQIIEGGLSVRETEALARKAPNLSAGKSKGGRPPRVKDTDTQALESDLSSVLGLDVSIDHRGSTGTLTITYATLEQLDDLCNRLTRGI

# Variants of: B1
# method: one-hybrid fitness for binding parS DNA (scaled: cognate 1, non-cognate 0); higher = stronger binding
# condition-notes: with parS DNA site
Whole data set: some 81,000 sequences, median “one-hybrid fitness for binding parS DNA” near -0.17, cut for the highest 2% near 0.51. This is one part of a sample in which the highest values are shown more often than they occur.

| mutant-code | limit-qualifier | one-hybrid fitness for binding parS DNA |
| --- | --- | --- |
| RPNS | ≤ | 0.2 |
| REVT | ≤ | 0.2 |
| RSVT | = | 0.707 |
| RNKH | = | 0.219 |
| RDMG | ≤ | 0.2 |
| RRMR | ≤ | 0.2 |
| RCQA | = | 0.593 |
| RCDP | = | 0.204 |
| LQRT | ≤ | 0.2 |
| GAHV | ≤ | 0.2 |
| YYAL | ≤ | 0.2 |
| RSQA | = | 0.555 |
| RNYY | = | 0.297 |
| RSDP | ≤ | 0.2 |
| RAMY | = | 0.435 |
| PQCN | ≤ | 0.2 |
| RRSN | = | 0.695 |
| RRSD | ≤ | 0.2 |
| RSDS | = | 0.939 |
| QASK | ≤ | 0.2 |
| RCVT | = | 0.843 |
| PNYS | ≤ | 0.2 |
| RCNP | ≤ | 0.2 |
| DTQA | ≤ | 0.2 |
| RPMG | ≤ | 0.2 |
| RNVS | = | 0.674 |
| RQSM | = | 0.319 |
| RSNS | = | 0.959 |
| RQRT | = | 0.849 |
| RPDS | ≤ | 0.2 |
| REMG | ≤ | 0.2 |
| RWQA | = | 0.404 |
| RPVT | ≤ | 0.2 |
| TVNL | ≤ | 0.2 |
